Reported phosphorylation enrichment values follow for various sequences
- system-tested: EPHB2 (UniProt P29323)
- Sequence (P29323 whole entry, looked up): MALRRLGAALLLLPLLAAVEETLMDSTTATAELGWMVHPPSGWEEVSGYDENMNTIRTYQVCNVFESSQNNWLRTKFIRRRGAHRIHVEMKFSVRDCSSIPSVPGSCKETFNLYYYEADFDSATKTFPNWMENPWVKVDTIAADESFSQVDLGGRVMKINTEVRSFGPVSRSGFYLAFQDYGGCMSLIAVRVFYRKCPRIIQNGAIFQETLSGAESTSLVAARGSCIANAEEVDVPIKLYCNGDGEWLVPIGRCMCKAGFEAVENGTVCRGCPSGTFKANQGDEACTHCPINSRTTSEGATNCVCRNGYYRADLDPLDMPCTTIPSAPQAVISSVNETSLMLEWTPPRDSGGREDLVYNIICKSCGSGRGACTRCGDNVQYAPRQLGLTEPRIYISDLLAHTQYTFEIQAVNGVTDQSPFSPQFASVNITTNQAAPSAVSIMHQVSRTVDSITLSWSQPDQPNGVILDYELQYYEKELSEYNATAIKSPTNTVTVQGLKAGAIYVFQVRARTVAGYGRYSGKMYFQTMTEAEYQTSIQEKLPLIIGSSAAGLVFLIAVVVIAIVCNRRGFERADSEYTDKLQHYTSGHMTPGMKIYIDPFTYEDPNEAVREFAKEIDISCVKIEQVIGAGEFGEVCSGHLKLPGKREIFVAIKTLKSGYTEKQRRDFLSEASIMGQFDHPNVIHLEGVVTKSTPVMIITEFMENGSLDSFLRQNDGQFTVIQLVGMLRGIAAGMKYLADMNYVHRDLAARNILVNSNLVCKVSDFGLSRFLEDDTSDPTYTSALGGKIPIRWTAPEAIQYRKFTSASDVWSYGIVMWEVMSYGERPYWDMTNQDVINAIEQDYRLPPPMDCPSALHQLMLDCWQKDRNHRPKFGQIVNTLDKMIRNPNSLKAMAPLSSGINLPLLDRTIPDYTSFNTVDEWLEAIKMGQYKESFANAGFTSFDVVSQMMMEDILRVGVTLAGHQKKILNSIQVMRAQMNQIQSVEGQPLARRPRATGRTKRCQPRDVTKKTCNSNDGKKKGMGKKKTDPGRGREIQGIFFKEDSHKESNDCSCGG
- assay-name: phosphorylation enrichment, bacterial display (enrichment ratio); higher = better substrate or ligand; peptides without Tyr show the background;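 note: 11-residue human phosphosite peptides and single-mutation variants displayed on the E. coli surface, counted by deep sequencing, each peptide's frequency after selection divided by its frequency in the unselected input library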;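 note: frequency after pTyr selection over input frequency; kinase dosed for 20-30% of maximal phosphorylation in three min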
Number only, please.

### Prompt Please look at this sequence and report its phosphorylation enrichment: KNNDGNIDFAE [MCFD2_Y135_Y135N_YF]
### Response 0.673

### Prompt Please look at this sequence and report its phosphorylation enrichment: RAEAQYLLVSN [LRIG1_Y1054]
### Response 0.551

### Prompt Please look at this sequence and report its phosphorylation enrichment: MDYRSYPREYG [RBM10_Y44]
### Response 0.402

### Prompt Please look at this sequence and report its phosphorylation enrichment: PADQAYSWYQH [NDST1_Y711_R709Q]
### Response 0.674

---
### Prompt Please look at this sequence and report its phosphorylation enrichment: KILGRYFETSS [PAX2_Y72_G76S_YF]
### Response 0.406

### Prompt Please look at this sequence and report its phosphorylation enrichment: DTKDDYNALSV [IL17RB_Y457]
### Response 0.625

### Prompt Please look at this sequence and report its phosphorylation enrichment: NHYKIYNPCAE [PTEN_Y68_L70P]
### Response 0.48

### Prompt Please look at this sequence and report its phosphorylation enrichment: FRVAGYKTQGG [TIA1_Y383_E384K_YF]
### Response 0.468

### Prompt Please look at this sequence and report its phosphorylation enrichment: SETSRYLSDLF [KCNJ3_Y67]
### Response 0.562

### Prompt Please look at this sequence and report its phosphorylation enrichment: TILEHYRRTHC [MYBPC3_Y1119_V1115I]
### Response 0.575

###

- system-tested: EPHB2 (UniProt P29323)
- assay-name: phosphorylation enrichment, bacterial display (enrichment ratio); higher = better substrate or ligand; peptides without Tyr show the background
Reported phosphorylation enrichment values follow for various sequences
Number only, please.

Use these answered entries as a reference point.
### Prompt Please respond with reported phosphorylation enrichment (system EPHB2 (UniProt P29323)) for NQSVRYDSSLK [ABCC8_Y1353_L1349Q] .
### Response 0.491

### Prompt Please respond with reported phosphorylation enrichment (system EPHB2 (UniProt P29323)) for DPADRYLIEQC [CDKL5_Y286_T288I] .
### Response 0.682

### Prompt Please respond with reported phosphorylation enrichment (system EPHB2 (UniProt P29323)) for GLSSAYGDLTS [KRT8_Y427_G429D] .
### Response 0.429

### Prompt Please respond with reported phosphorylation enrichment (system EPHB2 (UniProt P29323)) for INQGPYENHSV [ATP6V1B1_Y462_R465H] .
### Response 0.639

### Prompt Please respond with reported phosphorylation enrichment (system EPHB2 (UniProt P29323)) for GFEEAYSVSKK [PAFAH1B1_Y28_F31S_YF] .
### Response 0.353

---
### Prompt Please respond with reported phosphorylation enrichment (system EPHB2 (UniProt P29323)) for GEYYRYLAEVA [YWHAG_Y133_D129E] .
### Response 2.05

### Prompt Please respond with reported phosphorylation enrichment (system EPHB2 (UniProt P29323)) for SGIYQYIIAKF [FOXL2_Y83] .
### Response 5.98

### Prompt Please respond with reported phosphorylation enrichment (system EPHB2 (UniProt P29323)) for MDDDQYALLTT [EFCAB6_Y675] .
### Response 0.785

### Prompt Please respond with reported phosphorylation enrichment (system EPHB2 (UniProt P29323)) for LVLIKYLPEWT [PSEN1_Y240_F237L] .
### Response 0.611

### Prompt Please respond with reported phosphorylation enrichment (system EPHB2 (UniProt P29323)) for SFPPTYRYERG [INPPL1_Y661] .
### Response 0.43

###

- Test system: c-Src
- assay-name: phosphorylation enrichment, bacterial display (enrichment ratio); higher = better substrate or ligand; peptides without Tyr show the background
reported-metric: phosphorylation enrichment

Use these answered entries as a reference point.
### Prompt Please look at this sequence and report its phosphorylation enrichment: ACEVLYNIVFM [NCF2_Y125_A128V]
### Response 2.18

### Prompt Please look at this sequence and report its phosphorylation enrichment: QTEAQYRFIYM [PTPN11_Y511]
### Response 1.23

### Prompt Please look at this sequence and report its phosphorylation enrichment: IGEVVYQRAAM [GRIN2A_Y502_V506A]
### Response 1.27

### Prompt Please look at this sequence and report its phosphorylation enrichment: NHYKIYNPCAE [PTEN_Y68_L70P]
### Response 0.424

### Prompt Please look at this sequence and report its phosphorylation enrichment: KDQPDYKYQPR [SOX9_Y172_H169Q]
### Response 0.396

### Prompt Please look at this sequence and report its phosphorylation enrichment: FKRAVYCIIGR [NUP93_Y391_YF]
### Response 0.809

### Prompt Please look at this sequence and report its phosphorylation enrichment: KSVVTYSPTTG [ITGB3BP_Y32_I30V]
### Response 0.431

### Prompt Please look at this sequence and report its phosphorylation enrichment: LSVEIYDRREF [ITGB7_Y753_YF]
### Response 1.01

---
### Prompt Please look at this sequence and report its phosphorylation enrichment: GTFVIYVRFSG [FLNB_Y1687_G1691S_YF]
### Response 0.539

### Prompt Please look at this sequence and report its phosphorylation enrichment: ATARPYSPYII [LRP5_Y1528_R1529S]
### Response 1.02

### Prompt Please look at this sequence and report its phosphorylation enrichment: TVLWLYTGTRP [UGT1A1_Y337_R336L]
### Response 0.255

### Prompt Please look at this sequence and report its phosphorylation enrichment: HFNLTYRILSF [MMP23B_Y95]
### Response 0.636

### Prompt Please look at this sequence and report its phosphorylation enrichment: EEVPLYESATT [DCC_Y809_G805E]
### Response 1.09

### Prompt Please look at this sequence and report its phosphorylation enrichment: DRQASYLDKVR [KRT16_Y131_L128Q]
### Response 0.385

### Prompt Please look at this sequence and report its phosphorylation enrichment: SAGSSYSISVI [PAX5_Y179_G183V]
### Response 0.48

### Prompt Please look at this sequence and report its phosphorylation enrichment: GKMSSYAFFVQ [HMGB1_Y16]
### Response 0.562

### Prompt Please look at this sequence and report its phosphorylation enrichment: EKNANYKEGTF [CLRN1_Y171_I168N_YF]
### Response 0.389

### Prompt Please look at this sequence and report its phosphorylation enrichment: QSSALYEDCYL [ASS1_Y83_R86C]
### Response 3.61

### Prompt Please look at this sequence and report its phosphorylation enrichment: TEDELYQLSLQ [RASGRP2_Y378]
### Response 1.33

### Prompt Please look at this sequence and report its phosphorylation enrichment: KSSDVYVSFDF [SORL1_Y136_YF]
### Response 4.3

### Prompt Please look at this sequence and report its phosphorylation enrichment: HKANEYFPVVI [ADAMTS18_Y764_L769I_YF]
### Response 0.625

### Prompt Please look at this sequence and report its phosphorylation enrichment: CTTIDYNYMCN [TP53_Y234_H233D]
### Response 0.488

### Prompt Please look at this sequence and report its phosphorylation enrichment: LLSISYVGCSL [ADGRD1_Y571_S567L]
### Response 0.69

### Prompt Please look at this sequence and report its phosphorylation enrichment: KQFWRYFPGNL [SLC25A4_Y112_A114P]
### Response 0.496

### Prompt Please look at this sequence and report its phosphorylation enrichment: SVGVPYEPPEV [TP53_Y220_V217G]
### Response 0.509

### Prompt Please look at this sequence and report its phosphorylation enrichment: IKNFKYGIEEH [GJA1_Y137_K134N]
### Response 0.368

### Prompt Please look at this sequence and report its phosphorylation enrichment: CGPLLYGLVHQ [PRKCG_Y122_S119P]
### Response 4.08

###

- system-tested: MERTK (UniProt Q12866)
- Sequence (Q12866 whole entry, looked up): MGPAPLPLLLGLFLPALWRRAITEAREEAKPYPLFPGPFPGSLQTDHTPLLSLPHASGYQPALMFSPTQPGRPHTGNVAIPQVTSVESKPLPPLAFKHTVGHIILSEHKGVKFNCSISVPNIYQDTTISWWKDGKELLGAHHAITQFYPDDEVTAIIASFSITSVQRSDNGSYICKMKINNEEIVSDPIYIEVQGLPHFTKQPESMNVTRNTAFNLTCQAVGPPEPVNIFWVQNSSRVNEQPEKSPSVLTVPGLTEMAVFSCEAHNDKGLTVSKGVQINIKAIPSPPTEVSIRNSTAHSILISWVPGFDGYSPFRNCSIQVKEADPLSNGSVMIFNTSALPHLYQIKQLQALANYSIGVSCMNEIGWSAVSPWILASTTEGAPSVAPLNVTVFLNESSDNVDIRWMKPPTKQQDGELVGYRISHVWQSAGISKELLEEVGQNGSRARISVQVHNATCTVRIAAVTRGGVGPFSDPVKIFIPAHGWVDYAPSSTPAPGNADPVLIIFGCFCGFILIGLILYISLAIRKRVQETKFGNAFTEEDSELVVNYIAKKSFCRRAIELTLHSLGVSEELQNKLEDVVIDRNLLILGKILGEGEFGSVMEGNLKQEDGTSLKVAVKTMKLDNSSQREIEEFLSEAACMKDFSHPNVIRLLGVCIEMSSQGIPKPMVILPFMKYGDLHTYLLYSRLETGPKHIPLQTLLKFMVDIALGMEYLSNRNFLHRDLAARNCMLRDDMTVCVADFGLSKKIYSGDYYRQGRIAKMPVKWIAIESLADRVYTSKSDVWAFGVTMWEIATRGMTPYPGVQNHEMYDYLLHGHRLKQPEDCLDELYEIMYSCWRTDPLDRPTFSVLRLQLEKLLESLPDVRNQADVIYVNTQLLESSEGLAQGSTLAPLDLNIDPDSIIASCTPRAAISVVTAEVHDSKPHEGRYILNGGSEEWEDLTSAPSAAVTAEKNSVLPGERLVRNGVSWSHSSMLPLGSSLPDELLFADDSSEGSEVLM
- assay-name: phosphorylation enrichment, bacterial display (enrichment ratio); higher = better substrate or ligand; peptides without Tyr show the background
Criterion: phosphorylation enrichment meeting or surpassing 0.5. Met: condition met. Not met: condition not met.

### Prompt // inclusive: phosphorylation enrichment at least 0.5? input: RIFDYYSARKT [STOX1_Y858_A863T]
### Response condition met

### Prompt // inclusive: phosphorylation enrichment at least 0.5? input: VPLLEYYRDIF [CDAN1_Y712]
### Response condition not met

### Prompt // inclusive: phosphorylation enrichment at least 0.5? input: EGELRYMHSRV [ABCD1_Y281_K276E]
### Response condition not met

### Prompt // inclusive: phosphorylation enrichment at least 0.5? input: EEQKKYYNAMK [SCN5A_Y1494]
### Response condition not met

---
### Prompt // inclusive: phosphorylation enrichment at least 0.5? input: IIEDPYYGNDF [ACP1_Y132_S137F]
### Response condition met

### Prompt // inclusive: phosphorylation enrichment at least 0.5? input: RGGWAYVLHPT [TRMT61A_Y67_V66A]
### Response condition met
